- Test system: A498
- Protocol: NCI tumour cell line growth inhibition, 48 h
Active and inactive are the calls of the source. Cut-off read from the data, not from the text of the source: active = GI50 up to about 1.1 µM and inactive = higher.
Measurement Label: GI50

Cc1cc(C)nc(NS(=O)(=O)c2ccc(NC(=O)NC(F)(F)F)cc2)n1 : > 100 µM (inactive)
COc1ccc(C(SCCO)(c2ccccc2)c2ccccc2)cc1 : 17.2 µM (inactive)
Cc1ccc(Cc2n[nH]c(=O)n2N2C(=O)c3ccccc3C2=O)cc1 : > 100 µM (inactive)
Nc1ncnc2c1ncn2[C@@H]1O[C@H](COC(c2ccccc2)(c2ccccc2)c2ccccc2)[C@@H](OC(=S)Oc2ccccc2)[C@@H]1F : 18.3 µM (inactive)
COc1cc(/N=C(\N)N=C(N)N)c2ncccc2c1 : > 100 µM (inactive)

Given the molecule COc1ccc(/C=N/n2c(Cc3ccc(Cl)cc3)n[nH]c2=O)c(OC)c1 , what is its reported GI50? 20.4 µM (inactive)

Also, CC(C)=CC(=O)Cc1nc2ccccc2[nH]c1=O please. > 100 µM (inactive)

Also, CCOC(=O)C(COS(C)(=O)=O)(COS(C)(=O)=O)C(=O)OCC please. 11.1 µM (inactive)

Also, COc1cccc2c1C(=O)c1c(O)c3c(c(O)c1C2=O)CC(O)(C(O)CO)CC3OC1CC(N2CCOCC2)C(O)C(C)O1 (configuration not stated) please. 0.00135 µM (active)

Also, Oc1ccc2ccccc2c1/N=N/c1ccsc1 please. > 100 µM (inactive)

Also, O=c1cc(CO)oc2c3c(cc(O)c12)OCC(COC1OC(CO)C(O)C(O)C1O)=CC3 (configuration not stated) please. > 100 µM (inactive)

Also, COC(=O)C1=C(c2cc(OC)c(OC)c(OC)c2)OC(c2ccc(OC)c(OC)c2)C1 (configuration not stated) please. 22.6 µM (inactive)

# credit: ChEMBL document CHEMBL1201862
